// provenance: patent US9718816B2

- TARGET UNDER TEST: CARM1 (Homo sapiens, UniProt Q86X55)
- Construct: Flag-CARM1-His
- Sequence (Q86X55 1-585 isoform Q86X55-1): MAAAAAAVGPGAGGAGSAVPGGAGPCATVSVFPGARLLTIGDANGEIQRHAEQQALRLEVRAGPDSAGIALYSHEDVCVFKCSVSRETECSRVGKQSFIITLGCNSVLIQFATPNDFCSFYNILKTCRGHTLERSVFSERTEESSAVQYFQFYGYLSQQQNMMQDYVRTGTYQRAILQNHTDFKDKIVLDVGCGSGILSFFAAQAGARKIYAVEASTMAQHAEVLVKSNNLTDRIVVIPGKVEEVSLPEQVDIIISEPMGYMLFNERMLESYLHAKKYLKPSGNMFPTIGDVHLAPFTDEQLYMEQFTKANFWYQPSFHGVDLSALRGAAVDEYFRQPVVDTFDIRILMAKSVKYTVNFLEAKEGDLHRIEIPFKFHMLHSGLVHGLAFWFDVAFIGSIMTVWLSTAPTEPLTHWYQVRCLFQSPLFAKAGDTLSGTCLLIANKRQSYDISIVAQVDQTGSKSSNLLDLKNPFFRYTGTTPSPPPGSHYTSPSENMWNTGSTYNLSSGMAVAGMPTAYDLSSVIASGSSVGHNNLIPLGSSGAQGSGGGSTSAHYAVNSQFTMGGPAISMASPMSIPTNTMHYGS
- TEST: CARM1 enzyme assay on peptide substrate (3H-SAM Flashplate)
- MEASUREMENT SETUP: CARM1 0.25 nM, 3H-SAM 30 nM, peptide 250 nM, 30 min preincubation; read-out: Biochem IC50
ENDPOINT NAME: IC50

Here are 7 compounds together with their reported answers.
CNCC(O)COc1cccc(-c2cc(NCCCCCCN)c3cnn(C(C)C)c3n2)c1 (centres unmarked) = 100 to 1000 nM
CNCC(O)COc1cccc(-c2cc(N(C)c3ccccn3)c3cnn(C(C)C)c3n2)c1 (centres unmarked) = 100 to 1000 nM
CNCC(O)COc1cccc(-c2cc(NC(=O)NC3CCOCC3)c3cnn(C(C)C)c3n2)c1 (centres unmarked) = < 100 nM
CNCC(O)COc1cccc(-c2cc(NCCCNC(=O)c3cccnc3)c3cnn(C(C)C)c3n2)c1 (centres unmarked) = 100 to 1000 nM
CNCC(O)COc1cccc(-c2cc(N(C)C3CCOCC3)c3cnn(C(C)C)c3n2)c1 (centres unmarked) = 100 to 1000 nM
CNCC(O)COc1cccc(-c2cc(NC3CC3)c3cnn(C(C)C)c3n2)c1 (centres unmarked) = 100 to 1000 nM
CNCC(O)COc1cccc(-c2cc(NCCCCCNC(=O)c3cccnc3)c3cnn(C(C)C)c3n2)c1 (centres unmarked) = 100 to 1000 nM

Provide the documented IC50 with CARM1 (Homo sapiens, UniProt Q86X55) as the system for CC(C)n1ncc2c(NCc3cccnc3)cc(-c3cccc(OCC(O)CN)c3)nc21 (centres unmarked)
3000 to 10000 nM
